Values compiled from PubChem BioAssay (NCI).

Give measured growth for each item. Keep answers brief.
test system: NCI-H460 lung; assay: NCI-60 one-dose screen, 48 h (100 = growth as untreated, 0 = no growth, -100 = all killed); details: 10 µM unless noted
About 83,000 compounds went through this panel and 20% of them were active in at least one assay; those are over-represented in the sample as a whole.
Only the number, expressed in %, is required.

Report growth for O=C1C=C(OCC=C(C(F)(F)F)C(F)(F)F)c2ccccc2C1=O please.
59

// query: Nc1cc2c(cc1Br)[nH]c(=O)c1ccccc12
38.4

Request: Nc1nc2c(c3cnccc13)C(c1cccc(Cl)c1)Cc1cnccc1-2 (stereo not given)
2.15

Further, for OCC(O)C(O)CC1SCCS1 (stereo not given) ?
108

Another: FC(F)(F)c1cccc(-c2[nH]ncc2-c2nnnn2-c2ccccc2)c1
21.8
